- Assay target: T1, GFP-9S library array, motif 4 ND N98K;D124K (synthetic construct, N98K;D124K)
- T1 chain: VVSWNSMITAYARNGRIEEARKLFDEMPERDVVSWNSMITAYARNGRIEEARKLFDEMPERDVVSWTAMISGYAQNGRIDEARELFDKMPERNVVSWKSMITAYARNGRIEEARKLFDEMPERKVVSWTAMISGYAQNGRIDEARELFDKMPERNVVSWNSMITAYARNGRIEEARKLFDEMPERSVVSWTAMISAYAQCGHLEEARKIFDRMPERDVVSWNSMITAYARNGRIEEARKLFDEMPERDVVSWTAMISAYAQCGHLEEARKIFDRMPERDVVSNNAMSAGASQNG
- Test protocol: high-throughput RNA pulldown from lysate on Ni-NTA beads; HRP: 50 mM Tris pH 8, 150 mM NaCl, 1 mM beta-mercaptoethanol, 50 ug/ml BSA, 3 ug/ml yeast RNA, 0.5% heparin; ITC and FP: Tris pH 8, 200 mM KCl, 5% glycerol; MST: 50 mM Tris pH 8, 200 mM NaCl, 1 mM DTT, BSA, heparin, 0.05% Tween 20
- Reported conditions: tags: N-terminal His-eGFP; label: 5' Cy5
Observation type: Kd (nM)
Please respond with the number in nM and leave the unit unwritten.

# Binder, Data value
records = [
    ("AUUACACGUGA (ssRNA) [Cy5-rpoA]", 102),
]

Record AUUAGACGUGA (ssRNA) [Cy5-rpoA-G] , field Kd: 119
